# System: SNB-75 CNS
# ASSAY_REMARKS: NCI tumour cell line growth inhibition, 48 h; in the data active = GI50 below about 0.43 µM; inactive = the rest
Classes to choose from: active, inactive

Per the records of this test, what outcome belongs to "C/C1=C\CC[C@@](C)(O)[C@@H]2C[C@H](CC/C(C)=C/CC1)C1(CC1)C(=O)O2" ?
inactive

Lookup "COc1cc2nc(-c3ccc(C(F)(F)F)cc3)cc(OCCCN3CCCC3)c2cc1OC"
active

Note, next up: "CSc1ccc(N(C)c2nc(C)nc3c2CCC3)cc1"
active

====

# Tested on: NCI-H23 lung
# ASSAY_REMARKS: NCI tumour cell line growth inhibition, 48 h
Please go through the items and note down their TGI.

Query (compound): "CC(C)/C(Cl)=N/OC(=O)Nc1ccc(OC(F)(F)F)cc1" ; field requested: TGI
30.9 µM

Note, next up: CC1c2ccccc2N=C2SC(=S)N3CCN=C3N21 (stereo not drawn)
> 100 µM

Try this compound too: "O=C(/C=C/c1ccc2c(c1)OCO2)Cc1nc2ccccc2[nH]c1=O"
> 100 µM

Further, for CC(=O)[CH-]C(=O)c1ccccc1.CC(=O)[CH-]C(=O)c1ccccc1.CC1(C)OCC(C2OC3OC(C)(C)OC3C2[O-])O1.CC[O-].[Ti+4] (stereo not drawn) ?
30 µM

Also "COc1ccc2c(c1)c(=O)c1c(NCCNCCO)ccc3c(=O)n(CCN(C)C)c(=O)n2c31" ?
0.271 µM

Then this compound: "O=C1CNS(=O)(=O)N1"
> 100 µM

Okay, and O=C(NN1C(=O)CSC1c1cccc(F)c1)c1ccncc1 (stereo not drawn) ?
> 100 µM

And for "Cc1ccc2oc(=O)c(-c3ccccc3)nc2c1" ?
90.7 µM

Cool, now "Nc1ccc(-c2nn3c(COc4ccc(Cl)cc4)nnc3s2)cc1"
> 100 µM

Now the same for "COc1cccc2c(=O)c3c(sc12)c(NCCCNCCO)nc1ccccc13"
3.27 µM

Same question, COc1cc(C(O)c2ccc3c(c2)OCO3)cc(OC)c1OC (stereo not drawn) this time
> 100 µM

// query: "C[C@H]1OC(=O)[C@@H]2N=NN(Cc3ccccc3)[C@H]12"
> 100 µM

Same again, this time with CCCCCCC(C)CCCCCCCCCCC(=O)O (stereo not drawn)
> 100 µM

Same thing, different compound: O=S1SC(=S)C2C=CC=CC21 (stereo not drawn)
> 100 µM

And the next one, "O=[N+]([O-])/C(Cl)=C(\NCCN/C(C(Cl)=C(Cl)Cl)=C(/Cl)[N+](=O)[O-])C(Cl)=C(Cl)Cl" ?
> 100 µM

How about this compound: "CCNc1ncnc2sc(SCc3ccccc3)nc12"
> 100 µM

# iterate: "COc1ccc2c(NCCCCCCNc3c4ccccc4nc4cc(OC)ccc34)c3ccccc3nc2c1"
0.819 µM

Next entry: "CC(C)=CCC[C@@H](C)C1=C(O)C(N)=C(C)C(=O)C1=O"
> 100 µM

Item: "Cc1cc2c(cc1Cl)S/C(=C/C(=O)O)C(Nc1cccc3nsnc13)=NS2(=O)=O"
> 61.7 µM

Similarly, "O=S1(=O)C[C@@H](NCc2ccccc2)[C@H](NCc2ccccc2)C1" ?
> 100 µM

Also check "Cc1cccc(N(CC(=O)O)S(=O)(=O)c2ccccc2)c1"
> 100 µM

Another: CC(C)(C)NCC(COc1ccc([N+](=O)[O-])cc1)OP(c1ccccc1)c1ccccc1 (stereo not drawn)
> 100 µM

What about this compound? O=C1c2cccc(O)c2C(=O)c2c(OC3OC(CO)C(O)C(O)C3O)cccc21 (stereo not drawn)
31.6 µM

What would you report for "O=c1c2ccccc2sc2ccccc12" ?
> 100 µM

Same thing, different compound: "COc1ccc(OC)c2sc(N3C(=O)/C(=C/c4cccc([N+](=O)[O-])c4)N=C3c3ccccc3)nc12"
> 100 µM

Would you mind doing CN1c2ccccc2SC2C(c3ccccc3)=NOC21 (stereo not drawn) as well?
71.7 µM

Next compound up: O=C(CC(C(=O)c1ccco1)c1ccco1)c1ccco1 (stereo not drawn)
> 100 µM

Next record, please: CC#CC(O)(C(=O)OC1CC(C)N(C)C(C)(C)C1)C1CCCC1 (stereo not drawn)
> 100 µM

Next record, please: "Cc1cc(C)n(C2=NS(=O)(=O)c3ccccc3N2C)n1"
> 100 µM

Ok, now "O=C1/C(=C/c2cccc([N+](=O)[O-])c2)Sc2scc(-c3ccc([N+](=O)[O-])cc3)[n+]21"
35.5 µM

Here is the next compound: "COc1ccc(Oc2cnn(C(Br)(Br)C(C)=O)c(=O)c2Br)cc1"
39 µM

Moving on to "Cc1ccc(NC(=O)/C(Cc2nc3ccc([N+](=O)[O-])cc3[nH]c2=O)=N\NC(=O)C[n+]2ccccc2)c(C)c1"
> 100 µM

What do we get for O=C(O)CN(CC(=O)O)C(C(=O)O)c1ccccc1 (stereo not drawn) ?
> 100 µM

Next compound: CC(C)(C)OC(=O)NC1CCCC1=O (stereo not drawn)
> 100 µM

Next compound up: CC1(C)OC2COC3([C@@H]4OC(C)(C)O[C@@H]4CO)OC(C)(C)OC3C2O1 (stereo partly drawn)
> 100 µM

Further, for COc1ccc(NC(C)c2ccncc2)cc1 (stereo not drawn) ?
> 100 µM

Again, but for C(=C\c1ccccc1)/COc1ccccc1C(N1CCOCC1)n1nc2ccccc2n1 (stereo not drawn)
24.6 µM

// same read-out, input: CCOC(=O)C(NC(=O)Nc1ccc(Cl)cc1)(OC)C(F)(F)F (stereo not drawn)
> 100 µM

Continue with "O=C(O)/C=C\C(=O)Nc1ccc(S(=O)(=O)c2ccc(NC(=O)/C=C\C(=O)O)cc2)cc1"
> 100 µM

Follow-up item: "Cc1ccc(-n2nc(C(C)(C)C)cc2NC(=O)NCc2cc(F)ccc2Oc2ccc3c(cnn3CCO)c2)cc1"
> 85.3 µM

Same again, this time with "CN(C)C(=S)Nc1nnc(Nc2ccccc2)s1"
> 100 µM

Now the same for "COc1cc(CNc2nc3ccc(C(F)(F)F)cc3nc2-c2ccccc2)cc(OC)c1OC"
> 100 µM

Same question for "N#Cc1c(-c2ccco2)cc(-c2ccccc2)[nH]c1=O" please.
> 100 µM

Sourced from PubChem BioAssay (NCI)
